B1: library; a variant is named by its letters at N, in order (parent)
chain: ACATTTGTTGATACAACCATAAAATGATAATTACACCCATAAATTGATAATTATCACACCCANNNNNNNNNNNNNNCTCTGATCATAGTCAGACCAACATTGCTACGACCCGTATTCGCACCGACAC

variants of: B1; test: relative integration efficiency (T-RL orientation) vs wild-type transposon end (log2 (normalized fold change)); transposon end mutated: right end (5 bp flank + 75 bp right end); higher = more efficient transposition; settings: with VchCAST RNA-guided transposition machinery (E. coli BL21(DE3) host, lacZ target)
Reported relative integration efficiency (log2) values for the following variants.
// keep it numeric: no unit symbol after the value

The following variants have reported results that may help.
| MUTANT_NAME | OBSERVED |
| --- | --- |
| TAAAGTGATATTTA C59A | -0.094 |
| TAAATTGAGCTTGC | -0.264 |
| ATTTAACTATAACG A23G | -0.928 |
| TCAATTGATATTGC | 0.124 |
| ATTTAACTATAACG A35C | -0.737 |
| TAAATTGATTTTGC | -0.0591 |

Ask | Given the entry TAAATTGATCTTGC , report its measured relative integration efficiency (log2).
Reply | 0.011

Ask | Next variant up: TATATTGATATCTC C59A
Reply | -0.231

Ask | Item: TAAATTGATATTGC A53T
Reply | -0.33

Ask | And TAAATTGATATTGC C18G ?
Reply | -0.199

Ask | And what about the variant ATTTAACTATAACG A53G ?
Reply | -1.38

Ask | // query: ATTTAACTATAACG C34G
Reply | -1.76

Ask | Item: TAAATTGATATTGC A27C
Reply | -0.753

Ask | Next variant up: TAAATTGATATTGC A62T
Reply | -0.435

Ask | Another variant: TAAATAGATATTGC
Reply | -0.222

Ask | Try this variant next: TAAATTGATATTGC A50G
Reply | -0.0471

Ask | How about this variant: GCCCTTGATATTGC
Reply | -0.468

Ask | Same question for TAAATTGATATTGC A58T please.
Reply | -0.281

Ask | Follow-up entry: TAAATTGATATTGC T32A
Reply | 0.933

Ask | Another: TAAATGTCGATTGC
Reply | -0.671

Ask | Try ATTTAACTATAACG C38A next.
Reply | -1.04

Ask | Please do the same for TAAATTGATATTGC C79A as well.
Reply | -0.158

Ask | Same question, TAAATTGATATTGC C59T this time
Reply | -0.0651
